# Tested on: RXF 393 renal
# assay protocol: NCI tumour cell line growth inhibition, 48 h; in the data active means GI50 below about 0.43 µM; inactive means the rest
API: response.call in t (active), f (inactive)

Reference set, count: 6
{"molecule": "COc1ccc2c(c1)CC[C@@H]1[C@@H]2CC[C@]2(C)c3[nH]ncc3C[C@@H]12", "answer label": "f"}
{"molecule": "O=C(Nc1ccc(Cl)cc1F)c1cc(F)ccc1O", "answer label": "f"}
{"molecule": "COc1cc(/C=C2\\CCCC3C2=Nc2ccccc2NC3c2cc(OC)c(OC)c(OC)c2)cc(OC)c1OC (stereo not given)", "answer label": "f"}
{"molecule": "Cc1c2cnccc2c(C)c2c1c1cc(C(=O)O)ccc1n2C", "answer label": "f"}
{"molecule": "CC(C)(C)CC(C)(C)N(CSc1ccc(Cl)cc1)CSc1ccc(Cl)cc1", "answer label": "f"}
{"molecule": "CCN1/C(=C/C=C/C=C/c2sc3ccccc3[n+]2CC)Sc2ccccc21", "answer label": "f"}

Next molecule, please.
So what was the verdict on C=CC(=O)NCCOc1cccc(Nc2cc(NCCCNC(=O)C3CCC3)c(Br)cn2)c1 in this test? t

###

# Test system: SR leukemia
# assay protocol: NCI tumour cell line growth inhibition, 48 h
Outcome label depends on TGI relative to 40 µM: at/above gives Y, below gives N.

{"compound": "COc1ccc(C2=CC(c3ccc(Oc4ccnc5cc(Cl)ccc45)c(OC)c3)c3c(nc(OC)[nH]c3=O)N2)cc1 (centres undefined)", "answer label": "Y"}

Would you say CNS(=O)(=O)c1ccccc1C(=N)c1ccccc1 shows TGI at minimum 40 µM? Y

Is TGI for CC(OC1CC(=O)CC2C(=O)C=CC(=O)C12)c1ccccc1 (centres undefined) at or above 40 µM? Y

Is reported TGI greater than or equal to 40 µM here: O=C1N(CN2CCOCC2)CN(CN2CCOCC2)C(=O)N1Cc1ccc(-c2ccc(CN3C(=O)N(CN4CCOCC4)CN(CN4CCOCC4)C3=O)cc2)cc1 N

Would you say COC1/C=C\OC2(C)Oc3c(C)c(O)c4c(O)c(c(/C=N\OCCCc5ccccc5)c(O)c4c3C2=O)NC(=O)/C(C)=C\C=C/C(C)C(O)C(C)C(O)C(C)C(OC(C)=O)C1C (centres undefined) shows TGI at minimum 40 µM? N

###

# Test system: SW-620 colon
# assay protocol: NCI tumour cell line growth inhibition, 48 h
For each of the compounds below, state its TGI.

{"compound": "Cc1cccc(Cl)c1NC(N)=S", "quantity name": "TGI", "reported result": "35.6 µM"}
{"compound": "Fc1ccc2c(c1)SC1Oc3ccccc3-c3c1c-2nn3-c1ccccc1 (stereo not drawn)", "quantity name": "TGI", "reported result": "> 100 µM"}
{"compound": "O=C(O)CC(C(=O)O)C1c2ccccc2-c2ccccc21 (stereo not drawn)", "quantity name": "TGI", "reported result": "> 100 µM"}
{"compound": "O=Nc1ccc(O)c2ncccc12", "quantity name": "TGI", "reported result": "18.2 µM"}

Value sought for every listed compound: TGI.
1. Cc1ccc(P(c2ccc(C)cc2)c2ccc(C)cc2)cc1
2. O=C(N[C@@H]1C=CCC[C@@H]1c1ccccc1)OCc1ccccc1

1: > 100 µM; 2: 50.7 µM

###

Assignment: determine reported TGI for the given compounds.
# Tested on: HOP-92 NSCLC
# assay protocol: NCI tumour cell line growth inhibition, 48 h
Where a SMILES comes first, the peptide text is derived from it. The star is where a group is joined. Boc = CC(C)(C)OC(=O)*

Here are 6 compounds together with their reported answers.
{"compound": "Cc1cc(Cl)ccc1NC(=O)C(=O)Cc1ccc([N+](=O)[O-])c([N+](=O)[O-])c1CC(=O)C(=O)Nc1ccc(Cl)cc1C", "reported result": "> 100 µM"}
{"compound": "CCN1CCC2(CC1)NC(=O)c1c(c3ccc(Cl)c(Cl)c3n1C)C2C#N (stereo not drawn)", "reported result": "> 100 µM"}
{"compound": "C=CC(=O)NCCOc1cccc(Nc2cc(NCCCNC(=O)C3CCC3)c(Br)cn2)c1", "reported result": "> 25 µM"}
{"compound": "CC(C)(C)C1(c2ccc(C3(c4ccccc4)Oc4ccccc4S3)[nH]2)Oc2ccccc2S1 (stereo not drawn)", "reported result": "> 100 µM"}
{"compound": "COc1ccc(-c2nn(-c3ccc(NC(=O)Nc4ccc(Cl)c(Cl)c4)cc3)cc2-c2ccncc2)cc1Cl", "reported result": "5.72 µM"}
{"compound": "COC(=O)C(Cc1c[nH]c2ccccc12)NC(=O)C(Cc1c[nH]c2ccccc12)NC(=O)C(Cc1c[nH]c2ccccc12)NC(=O)OC(C)(C)C (stereo not drawn) (Boc-Trp-Trp-Trp-OMe; configuration not given here)", "reported result": "33 µM"}

State recorded TGI for all listed compounds.
1. FC(F)(F)c1ccc2c(c1)nc(Cc1ccc(Cl)c(Cl)c1)n2CC1CCCN2CCCCC12 (stereo not drawn)
2. CS(=O)(=O)N1CC(CCl)c2ccc(NCCN)cc21 (stereo not drawn)

1: > 100 µM; 2: 74.6 µM
